The origin of these recorded values is ChEMBL document CHEMBL5058577.

Below, each of the compounds is paired with its reported Population Mitochondria Different-Phenotype (%) value.
Tested on: Fibroblast
Assay: Multiplex assay against human fibroblast
Type: toxicity, cell-based
Conditions: 48 h, 10 µM, compound concentration 10 uM, replicate 1
I only need the number, in %, no unit after it.

Let me check: `CCCn1c(=O)c2[nH]c(C3CCCC3)nc2n(CCC)c1=O` , system Fibroblast, measured Population Mitochondria Different-Phenotype (%) is 13

Let me check: O=C(O)Cc1ccccc1Nc1c(Cl)cccc1Cl [DICLOFENAC] , system Fibroblast, measured Population Mitochondria Different-Phenotype (%) is 3

Let me check: `O=C1COc2nccc(-c3ccccc3F)c2CN1Cc1cc(C(F)(F)F)cc(C(F)(F)F)c1` , system Fibroblast, measured Population Mitochondria Different-Phenotype (%) is 14

====

Tested on: U2OS
Test: Multiplex assay against U2OS
Format: toxicity, cell-based
Conditions: human, 24 h, 10 µM, compound concentration 10 uM, replicate 1
measurement kind: Population Normal (%)
I only need the number, in %, no unit after it.

{"molecule": "COc1cc(C(=O)N(CCCc2ccccc2)Cc2ccc(CC(=O)O)cc2)cc(OC)c1C", "target desc": "U2OS", "Population Normal (%)": 99}

response.value for `O=C1COc2nccc(-c3ccccc3F)c2CN1Cc1cc(C(F)(F)F)cc(C(F)(F)F)c1` (field: Population Normal (%)) = 94

response.value for `CCNC1(C(N)=O)CCN(c2ncnc3c2nc(-c2ccccc2Cl)n3-c2ccc(Cl)cc2)CC1` (field: Population Normal (%)) = 96

====

System: U2OS
Assay: Multiplex assay against U2OS
Format: toxicity, cell-based
Conditions: human, 24 h, 10 µM, compound concentration 10 uM, replicate 1
measurement kind: Population Membrane Permeable-Phenotype (%)
I only need the number, in %, no unit after it.

{"compound": "Cl.Clc1ccc2nsnc2c1NC1=NCCN1 [TIZANIDINE HYDROCHLORIDE]", "reading unit": "%", "assay value": 4}

Let me check: `C[C@H]1[C@H]2CC[C@H]3[C@@H]4CC=C5C[C@@H](N(C)C)CC[C@]5(C)[C@H]4CC[C@]23CN1C` , system U2OS, measured Population Membrane Permeable-Phenotype (%) is 2

Let me check: O=S(=O)(c1ccccc1)c1cnc2c(N3CCNCC3)cccc2c1 [INTEPIRDINE] , system U2OS, measured Population Membrane Permeable-Phenotype (%) is 17

Let me check: `COc1cc(NC(=O)CCN2CCC(OC(=O)Nc3ccccc3-c3ccccc3)CC2)c(Cl)cc1CNC[C@H](O)c1ccc(O)c2[nH]c(=O)ccc12` , system U2OS, measured Population Membrane Permeable-Phenotype (%) is 32

====

System: HEK-293T
Assay: Multiplex assay against HEK293T
Type: toxicity, cell-based
Conditions: human, 48 h, 1 µM, compound concentration 1 uM, replicate 1
measurement kind: Population Membrane Permeable-Phenotype (%)
I only need the number, in %, no unit after it.

{"compound": "Cc1ccccc1C(=O)Nc1ccc(C(=O)N2CCCC(N(C)C)c3ccccc32)cc1.Cl (stereo not given)", "target desc": "HEK-293T", "assay value": 1}
{"compound": "CN(C)c1ccnc2sc3c(=O)n(N4CCCCCC4)cnc3c12", "target desc": "HEK-293T", "assay value": 0}
{"compound": "CCCN1CCC[C@@H]2Cc3n[nH]cc3C[C@H]21.Cl [QUINPIROLE HYDROCHLORIDE]", "target desc": "HEK-293T", "assay value": 1}

response.value for `CCNC1(C(N)=O)CCN(c2ncnc3c2nc(-c2ccccc2Cl)n3-c2ccc(Cl)cc2)CC1` (field: Population Membrane Permeable-Phenotype (%)) = 1

response.value for Cc1ccc(C(C)(O)c2nc3ccccc3s2)c(C)c1 (stereo not given) (field: Population Membrane Permeable-Phenotype (%)) = 1

====

Test system: Fibroblast
Assay: Multiplex assay against human fibroblast
Format: toxicity, cell-based
Settings: 24 h, 10 µM, compound concentration 10 uM, replicate 2
Below, each of the compounds is paired with its reported Population Membrane Permeable-Phenotype (%) value.
I only need the number, in %, no unit after it.

The following compounds have reported results that may help.
{"compound": "N#Cc1c(N)nc(SCc2csc(-c3ccc(Cl)cc3)n2)c(C#N)c1-c1ccc(OCCO)cc1 [CAPADENOSON]", "reading unit": "%", "assay value": 17}
{"compound": "O=C(NCCO)c1cccc(-c2cc(Nc3ccc(OC(F)(F)F)cc3)ncn2)c1", "reading unit": "%", "assay value": 10}
{"compound": "CCCn1c(=O)c2[nH]c(C3CCCC3)nc2n(CCC)c1=O", "reading unit": "%", "assay value": 8}

response.value for Cc1ccc(/C(=C\CN2CCCC2)c2ccccn2)cc1 [TRIPROLIDINE] (field: Population Membrane Permeable-Phenotype (%)) = 6

response.value for Cl.Clc1ccc2nsnc2c1NC1=NCCN1 [TIZANIDINE HYDROCHLORIDE] (field: Population Membrane Permeable-Phenotype (%)) = 9

response.value for CCCN1CCC[C@@H]2Cc3n[nH]cc3C[C@H]21.Cl [QUINPIROLE HYDROCHLORIDE] (field: Population Membrane Permeable-Phenotype (%)) = 7

response.value for Cc1ccc(F)cc1C(=O)Nc1ccc(C(=O)N2Cc3cccn3Cc3ccccc32)c(Cl)c1 [LIXIVAPTAN] (field: Population Membrane Permeable-Phenotype (%)) = 11

response.value for `CC[C@H]1OC(=O)[C@H](C)[C@@H](O[C@H]2C[C@@](C)(OC)[C@@H](O)[C@H](C)O2)[C@H](C)[C@@H](O[C@@H]2O[C@H](C)C[C@H](N(C)C)[C@H]2O)[C@@]2(C)CC(C)=C(O2)[C@H](C)[C@@H](O)[C@]1(C)O` (field: Population Membrane Permeable-Phenotype (%)) = 8

response.value for O=C(O)Cc1ccccc1Nc1c(Cl)cccc1Cl [DICLOFENAC] (field: Population Membrane Permeable-Phenotype (%)) = 8

response.value for COc1ccc2c(c1)C(C(=O)N(Cc1ccc(N(C)C)cc1)c1ccc(C(C)C)cc1)CCC2.Cl (stereo unspecified) (field: Population Membrane Permeable-Phenotype (%)) = 2

response.value for `CN(C)c1ccnc2sc3c(=O)n(N4CCCCCC4)cnc3c12` (field: Population Membrane Permeable-Phenotype (%)) = 22

====

Test system: Fibroblast
Experiment: Multiplex assay against human fibroblast
Type: toxicity, cell-based
Conditions: 48 h, 1 µM, compound concentration 1 uM, replicate 1
measurement kind: Population Normal (%)
I only need the number, in %, no unit after it.

{"molecule": "CN(C)CCCc1cc(C(=O)Nc2ccc(-c3ccncc3)cc2)ccc1O.Cl.Cl", "target desc": "Fibroblast", "reading unit": "%", "Population Normal (%)": 99}
{"molecule": "O=C(O)Cc1ccccc1Nc1c(Cl)cccc1Cl [DICLOFENAC]", "target desc": "Fibroblast", "reading unit": "%", "Population Normal (%)": 96}
{"molecule": "CCCn1c(=O)c2[nH]c(C3CCCC3)nc2n(CCC)c1=O", "target desc": "Fibroblast", "reading unit": "%", "Population Normal (%)": 97}
{"molecule": "CC(C)(C)c1ccc(S(=O)(=O)Nc2ccc(Cl)cc2C(=O)c2cc[n+]([O-])cc2)cc1 [VERCIRNON]", "target desc": "Fibroblast", "reading unit": "%", "Population Normal (%)": 98}

response.value for CCNC1(C(N)=O)CCN(c2ncnc3c2nc(-c2ccccc2Cl)n3-c2ccc(Cl)cc2)CC1 [OTENABANT] (field: Population Normal (%)) = 91

====

Test system: U2OS
Assay: Multiplex assay against U2OS
Assay type: toxicity, cell-based
Conditions: human, 48 h, 1 µM, compound concentration 1 uM, replicate 1
Below, each of the molecules is paired with its reported Population Apoptotic (%) value.
I only need the number, in %, no unit after it.

The following molecules have reported results that may help.
{"molecule": "Cl.Clc1ccc2nsnc2c1NC1=NCCN1 [TIZANIDINE HYDROCHLORIDE]", "target desc": "U2OS", "measurement kind": "Population Apoptotic (%)", "assay value": 86}
{"molecule": "O=C(O)Cc1ccccc1Nc1c(Cl)cccc1Cl", "target desc": "U2OS", "measurement kind": "Population Apoptotic (%)", "assay value": 100}

Let me check: COc1ccc2c(c1)C(C(=O)N(Cc1ccc(N(C)C)cc1)c1ccc(C(C)C)cc1)CCC2.Cl (stereo not drawn) , system U2OS, measured Population Apoptotic (%) is 80

Let me check: `CCCn1c(=O)c2[nH]c(C3CCCC3)nc2n(CCC)c1=O` , system U2OS, measured Population Apoptotic (%) is 86

====

Tested on: HEK-293T
Test: Multiplex assay against HEK293T
Assay type: toxicity, cell-based
Details: human, 48 h, 1 µM, compound concentration 1 uM, replicate 1
measurement kind: Population Mitochondria Different-Phenotype (%)
Returns: string containing the number followed by the unit.

The following compounds have reported results that may help.
{"compound": "COc1cc(C(=O)N(CCCc2ccccc2)Cc2ccc(CC(=O)O)cc2)cc(OC)c1C", "assay value": "16%"}
{"compound": "C[C@H]1[C@H]2CC[C@H]3[C@@H]4CC=C5C[C@@H](N(C)C)CC[C@]5(C)[C@H]4CC[C@]23CN1C [CONESSINE]", "assay value": "18%"}
{"compound": "COc1c(C)cc(NC(=O)c2nn(Cc3ccc(F)cc3)c3c2CN(C(=O)c2ccc[nH]2)C[C@]3(C)C(N)=O)cc1C", "assay value": "25%"}
{"compound": "COc1cc(NC(=O)CCN2CCC(OC(=O)Nc3ccccc3-c3ccccc3)CC2)c(Cl)cc1CNC[C@H](O)c1ccc(O)c2[nH]c(=O)ccc12 [BATEFENTEROL]", "assay value": "36%"}
{"compound": "CC[C@H]1OC(=O)[C@H](C)[C@@H](O[C@H]2C[C@@](C)(OC)[C@@H](O)[C@H](C)O2)[C@H](C)[C@@H](O[C@@H]2O[C@H](C)C[C@H](N(C)C)[C@H]2O)[C@@]2(C)CC(C)=C(O2)[C@H](C)[C@@H](O)[C@]1(C)O", "assay value": "28%"}
{"compound": "O=C(NCCO)c1cccc(-c2cc(Nc3ccc(OC(F)(F)F)cc3)ncn2)c1", "assay value": "17%"}
{"compound": "CCCN1CCC[C@@H]2Cc3n[nH]cc3C[C@H]21.Cl [QUINPIROLE HYDROCHLORIDE]", "assay value": "9%"}
{"compound": "CC(=O)NCCc1c(Cc2ccccc2)[nH]c2ccccc12 [LUZINDOLE]", "assay value": "16%"}

response.value for `COc1ccccc1N1CCN(CCCCNC(=O)c2ccc3ccccc3c2)CC1.Cl` (field: Population Mitochondria Different-Phenotype (%)) = 34%

response.value for `CN(C)c1ccnc2sc3c(=O)n(N4CCCCCC4)cnc3c12` (field: Population Mitochondria Different-Phenotype (%)) = 23%

response.value for N[C@@]1(C(=O)O)CO[C@H]2[C@H](C(=O)O)[C@H]21 [LY-379268] (field: Population Mitochondria Different-Phenotype (%)) = 15%

response.value for `CSCC[C@H](NC=O)C(=O)N[C@@H](CC(C)C)C(=O)N[C@@H](Cc1ccccc1)C(=O)O` (field: Population Mitochondria Different-Phenotype (%)) = 12%

response.value for O=C(NCC(=O)N1CC[C@H](N[C@H]2CC[C@@](O)(c3ccc(-c4ncccn4)cn3)CC2)C1)c1cccc(C(F)(F)F)c1 [PF-4136309] (field: Population Mitochondria Different-Phenotype (%)) = 14%

response.value for Cc1ccccc1C(=O)Nc1ccc(C(=O)N2CCCC(N(C)C)c3ccccc32)cc1.Cl (stereo unspecified) (field: Population Mitochondria Different-Phenotype (%)) = 24%

response.value for Cc1ccc(F)cc1C(=O)Nc1ccc(C(=O)N2Cc3cccn3Cc3ccccc32)c(Cl)c1 [LIXIVAPTAN] (field: Population Mitochondria Different-Phenotype (%)) = 19%

response.value for Cc1ccc(C(C)(O)c2nc3ccccc3s2)c(C)c1 (stereo unspecified) (field: Population Mitochondria Different-Phenotype (%)) = 15%
